IC50 reference
experiment summary: Antioxidant activity assessed as inhibition of peroxynitrite anion-induced oxidation of non-fluorescent DHR by rhodamine 123 staining in presence of NaHCO3
Format: functional
readout label: IC50 (µM)

>>> print(df.to_string())
                                    molecule  quantitative_result
 0  COC(=O)[C@H](Cc1cn(CCC(C)C)c2ccccc12)NC(C)=O                  315
 1                       NCCc1c[nH]c2ccccc12                 10.4
 2                CC(C)=CCn1cc(CCN)c2ccccc21                  234
 3  COC(=O)[C@H](Cc1cn(C/C=C/c2ccccc2)c2ccccc12)NC(C)=O                 36.3
 4  CC(C)=CCn1cc(CC(N)C(=O)O)c2ccccc21 (configuration not stated)                 42.4
 5  COC(=O)[C@H](Cc1cn(CCCc2ccccc2)c2ccccc12)NC(C)=O                  142
 6  COC(=O)C(Cc1c[nH]c2ccccc12)N1C(=O)c2ccccc2C1=O (configuration not stated)                 29.5
 7  COC(=O)C(Cc1c(CCC(C)C)[nH]c2ccccc12)N1C(=O)c2ccccc2C1=O (configuration not stated)                   14
 8  CC(C)=CCn1cc(CCN2C(=O)c3ccccc3C2=O)c2ccccc21                  192
 9  COC(=O)[C@H](Cc1cn(CC=C(C)C)c2ccccc12)NC(C)=O                  162
10  CC(C)CCn1cc(CCN2C(=O)c3ccccc3C2=O)c2ccccc21                  237
11     O=C1c2ccccc2C(=O)N1CCc1c[nH]c2ccccc12                 40.9
12  COC(=O)C(Cc1cn(CC=C(C)C)c2ccccc12)N1C(=O)c2ccccc2C1=O (configuration not stated)                  241
13         COC(=O)[C@@H](N)Cc1c[nH]c2ccccc12                 13.1
14          N[C@@H](Cc1c[nH]c2ccccc12)C(=O)O                 19.2
15  COC(=O)C(Cc1c(CC=C(C)C)[nH]c2ccccc12)N1C(=O)c2ccccc2C1=O (configuration not stated)                 28.2
16    COC(=O)[C@H](Cc1c[nH]c2ccccc12)NC(C)=O                 22.9
